For each entry below, report its pEC50 value.
- target-under-test: Full Length hPPARγ (Homo sapiens, UniProt P37231)
- Construct: Full Length; expressed in transfected cells; host or cells: Cos cells
- procedure-text: Full length hPPARγ transfection assay
- Type: cell-based
- setup-conditions: full length receptor; scale 1-5; read-out: Full Length hPPAR γ EC50 (scaled number)
- Experimental: Transient transfection assays. Cos cells were seeded in 60-mm dishes at a density of 5.5×10^5 cells/dish in Dulbecco's modified Eagle's medium (DMEM) supplemented with 10% fetal calf serum (FCS) and incubated at 37° C. for 24 hours before transfection. Cells were transfected in Opti-MEM (Gibco; Invitrogen, Carlsbad, Calif.) without FCS for 3 hours at 37° C., using polyethylenimine, with reporter and expression plasmids. […]
pEC50: −log10 of the molar value.

molecule	pEC50
CCCCCCCCn1c(COC(=O)c2ccc(SC(C)(C)C(=O)O)cc2)nn(Cc2ccc(C)cc2)c1=O [Compound 161]	6.00 to 6.70
CCCCCCn1c(COC(=O)c2ccc(SC(C)(C)C(=O)O)cc2)nn(Cc2ccc(C(C)(C)C)cc2)c1=O [Compound 187]	6.70 to 7.29

We next turn to a different molecule, shown below.
May I ask what pEC50 has been recorded for CCCCCCn1c(COC(=O)c2ccc(SC(C)(C)C(=O)O)cc2)nn(Cc2ccc(C)cc2)c1=O [Compound 160] ?
6.00 to 6.70

----------
- target-under-test: Gal-4 hPPARγ (Homo sapiens)
- Construct: Plasmids pGal4-hPPARα, pGal4-hPPARγ, pGal4-hPPARδ and pG5-TK-pGL3 were constructed as previously described by Staels, Bart, et al., Nature 1998 Jun; 25
- Sequence (P37231 238-505 limits assumed): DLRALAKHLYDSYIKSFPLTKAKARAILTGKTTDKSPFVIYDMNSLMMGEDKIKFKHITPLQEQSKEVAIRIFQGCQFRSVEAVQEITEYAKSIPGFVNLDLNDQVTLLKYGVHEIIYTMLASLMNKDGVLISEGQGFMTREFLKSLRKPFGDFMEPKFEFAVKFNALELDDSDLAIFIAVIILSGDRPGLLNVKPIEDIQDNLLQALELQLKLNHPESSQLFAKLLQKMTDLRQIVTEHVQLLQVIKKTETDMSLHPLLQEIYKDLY
- procedure-text: Gal4-hPPARγ transient transfection reporter assay in Cos cells
- setup-conditions: luciferase reporter, 24 hours with compound, scale 1-5, read-out: Gal-4 hPPAR γ EC50 (scaled number)
pEC50: −log10 of the molar value.
observation-type: pEC50

compound	observation-type	reported
C[C@@H](OC(=O)c1ccc(SC(C)(C)C(=O)O)cc1)c1cn(Cc2ccc(SC(F)(F)F)cc2)nn1	pEC50	6.70 to 7.29
CCn1c(COC(=O)c2ccc(SC(C)(C)C(=O)O)cc2)nn(Cc2ccc(C(C)(C)C)cc2)c1=O	pEC50	< 6.00
CCCn1c(COC(=O)c2ccc(OC(C)(C)C(=O)O)c(C)c2)nn(Cc2ccc(C(C)(C)C)cc2)c1=O	pEC50	< 6.00

Field: pEC50. Fill in for each record below.
1. CC(C)(Sc1ccc(C(=O)OCc2cnn(Cc3ccc(C(C)(C)C)cc3)c2)cc1)C(=O)O
2. CCCCCCn1c(COC(=O)c2ccc(OC(C)(C)C(=O)O)c(OC)c2)nn(Cc2ccc(C(C)(C)C)cc2)c1=O
3. CC(C)(Sc1ccc(C(=O)OCc2cn(Cc3ccc(C(F)(F)F)cc3)nn2)cc1)C(=O)O [Compound 102]
4. Cc1ccc(Cn2cc(C(C)OC(=O)c3ccc(SC(C)(C)C(=O)O)cc3)nn2)cc1 (stereo not shown)

1: 6.00 to 6.70; 2: < 6.00; 3: < 6.00; 4: < 6.00
